Quick list: IC50 per entry.
assay_target: UniProt O95180
Sequence (O95180 whole entry): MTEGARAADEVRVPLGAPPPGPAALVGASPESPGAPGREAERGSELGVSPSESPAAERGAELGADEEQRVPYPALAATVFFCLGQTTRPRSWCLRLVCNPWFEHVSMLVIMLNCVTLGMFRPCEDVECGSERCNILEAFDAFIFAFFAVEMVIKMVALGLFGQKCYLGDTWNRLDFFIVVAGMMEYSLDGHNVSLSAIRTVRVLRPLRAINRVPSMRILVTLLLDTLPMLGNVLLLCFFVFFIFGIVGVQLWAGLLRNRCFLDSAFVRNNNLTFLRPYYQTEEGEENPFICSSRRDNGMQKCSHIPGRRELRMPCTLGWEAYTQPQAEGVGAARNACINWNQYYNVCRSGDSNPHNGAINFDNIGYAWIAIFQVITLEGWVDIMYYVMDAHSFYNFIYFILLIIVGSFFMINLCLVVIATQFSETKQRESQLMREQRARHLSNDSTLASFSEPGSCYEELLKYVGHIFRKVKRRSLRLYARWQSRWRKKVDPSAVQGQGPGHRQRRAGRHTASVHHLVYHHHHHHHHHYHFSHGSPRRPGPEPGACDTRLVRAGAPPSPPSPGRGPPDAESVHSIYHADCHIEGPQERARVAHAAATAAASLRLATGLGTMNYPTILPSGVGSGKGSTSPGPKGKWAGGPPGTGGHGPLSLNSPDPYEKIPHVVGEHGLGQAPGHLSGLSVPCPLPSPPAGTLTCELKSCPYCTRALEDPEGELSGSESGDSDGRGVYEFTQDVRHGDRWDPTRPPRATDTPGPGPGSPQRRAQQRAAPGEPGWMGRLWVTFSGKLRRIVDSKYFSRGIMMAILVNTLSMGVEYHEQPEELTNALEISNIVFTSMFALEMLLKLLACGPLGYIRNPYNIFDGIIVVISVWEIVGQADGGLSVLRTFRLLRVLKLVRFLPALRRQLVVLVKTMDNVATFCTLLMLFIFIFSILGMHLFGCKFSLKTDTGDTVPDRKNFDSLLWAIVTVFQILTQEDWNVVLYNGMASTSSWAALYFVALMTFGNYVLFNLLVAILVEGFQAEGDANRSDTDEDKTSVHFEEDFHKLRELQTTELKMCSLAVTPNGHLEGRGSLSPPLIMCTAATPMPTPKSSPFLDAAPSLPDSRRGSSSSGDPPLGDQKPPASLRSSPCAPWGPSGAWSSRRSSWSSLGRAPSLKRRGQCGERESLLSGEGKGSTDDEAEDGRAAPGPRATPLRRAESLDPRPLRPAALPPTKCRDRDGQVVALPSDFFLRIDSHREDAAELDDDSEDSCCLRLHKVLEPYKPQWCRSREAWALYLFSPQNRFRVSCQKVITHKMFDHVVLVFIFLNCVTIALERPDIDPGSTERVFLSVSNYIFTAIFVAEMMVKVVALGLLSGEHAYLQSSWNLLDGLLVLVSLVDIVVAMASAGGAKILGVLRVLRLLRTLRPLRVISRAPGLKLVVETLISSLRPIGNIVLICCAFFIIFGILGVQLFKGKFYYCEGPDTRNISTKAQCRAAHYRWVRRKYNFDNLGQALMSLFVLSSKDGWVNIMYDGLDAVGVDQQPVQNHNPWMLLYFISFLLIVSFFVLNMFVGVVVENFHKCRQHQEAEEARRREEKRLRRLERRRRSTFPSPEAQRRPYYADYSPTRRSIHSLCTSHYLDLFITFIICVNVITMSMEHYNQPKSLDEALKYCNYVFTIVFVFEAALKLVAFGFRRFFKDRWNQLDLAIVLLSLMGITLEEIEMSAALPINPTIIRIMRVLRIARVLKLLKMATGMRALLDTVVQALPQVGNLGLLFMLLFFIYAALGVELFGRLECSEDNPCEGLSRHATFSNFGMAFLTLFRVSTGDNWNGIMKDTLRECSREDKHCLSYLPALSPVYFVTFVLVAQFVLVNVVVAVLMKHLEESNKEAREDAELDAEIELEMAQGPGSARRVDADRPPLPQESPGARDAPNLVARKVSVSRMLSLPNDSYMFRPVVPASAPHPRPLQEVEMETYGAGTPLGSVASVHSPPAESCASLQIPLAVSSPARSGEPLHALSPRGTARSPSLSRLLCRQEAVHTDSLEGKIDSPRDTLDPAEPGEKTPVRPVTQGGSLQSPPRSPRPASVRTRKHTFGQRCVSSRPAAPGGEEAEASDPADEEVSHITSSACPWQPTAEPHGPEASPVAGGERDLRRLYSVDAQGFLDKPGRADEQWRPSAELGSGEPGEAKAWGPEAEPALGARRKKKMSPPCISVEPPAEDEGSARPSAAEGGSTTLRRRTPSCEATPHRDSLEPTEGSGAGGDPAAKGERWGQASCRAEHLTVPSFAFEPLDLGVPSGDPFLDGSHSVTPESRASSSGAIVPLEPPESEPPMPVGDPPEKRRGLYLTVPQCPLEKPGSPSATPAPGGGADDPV
test_summary: T-type calcium channel block, whole cell patch clamp, α1H
reported_conditions: HEK cells stably expressing human α1H; mainly non-inactivated protocol; values above 10,000 nM represented as 10000
quantity_name: IC50

- molecule: "CC(C)(CCS(=O)(=O)c1cccc(OC(F)(F)F)c1)S(=O)(=O)c1cccc(C(F)(F)F)c1 [Compound 463]"
  result: "> 10 µM"
- molecule: "Cn1cc(C(=O)N[C@H]2CC[C@@H](S(=O)(=O)c3cccc(C(F)(F)F)c3)CC2)c(C(F)(F)F)n1 [Compound 45]"
  result: "> 10 µM"
- molecule: "O=C(N[C@H]1CC[C@@](F)(S(=O)(=O)c2cc(F)cc(C(F)(F)F)c2)CC1)c1ccc(F)c(Cl)c1 [Compound 329]"
  result: "> 10 µM"
- molecule: "CC(C)(CCS(=O)(=O)c1ccc(Cl)cc1)S(=O)(=O)c1cccc(C(F)(F)F)c1 [Compound 462]"
  result: "> 10 µM"
